target: Vascular endothelial growth factor receptor 2 (Homo sapiens) (UniProt P35968); details: at 1 µM
Sequence (P35968 whole entry): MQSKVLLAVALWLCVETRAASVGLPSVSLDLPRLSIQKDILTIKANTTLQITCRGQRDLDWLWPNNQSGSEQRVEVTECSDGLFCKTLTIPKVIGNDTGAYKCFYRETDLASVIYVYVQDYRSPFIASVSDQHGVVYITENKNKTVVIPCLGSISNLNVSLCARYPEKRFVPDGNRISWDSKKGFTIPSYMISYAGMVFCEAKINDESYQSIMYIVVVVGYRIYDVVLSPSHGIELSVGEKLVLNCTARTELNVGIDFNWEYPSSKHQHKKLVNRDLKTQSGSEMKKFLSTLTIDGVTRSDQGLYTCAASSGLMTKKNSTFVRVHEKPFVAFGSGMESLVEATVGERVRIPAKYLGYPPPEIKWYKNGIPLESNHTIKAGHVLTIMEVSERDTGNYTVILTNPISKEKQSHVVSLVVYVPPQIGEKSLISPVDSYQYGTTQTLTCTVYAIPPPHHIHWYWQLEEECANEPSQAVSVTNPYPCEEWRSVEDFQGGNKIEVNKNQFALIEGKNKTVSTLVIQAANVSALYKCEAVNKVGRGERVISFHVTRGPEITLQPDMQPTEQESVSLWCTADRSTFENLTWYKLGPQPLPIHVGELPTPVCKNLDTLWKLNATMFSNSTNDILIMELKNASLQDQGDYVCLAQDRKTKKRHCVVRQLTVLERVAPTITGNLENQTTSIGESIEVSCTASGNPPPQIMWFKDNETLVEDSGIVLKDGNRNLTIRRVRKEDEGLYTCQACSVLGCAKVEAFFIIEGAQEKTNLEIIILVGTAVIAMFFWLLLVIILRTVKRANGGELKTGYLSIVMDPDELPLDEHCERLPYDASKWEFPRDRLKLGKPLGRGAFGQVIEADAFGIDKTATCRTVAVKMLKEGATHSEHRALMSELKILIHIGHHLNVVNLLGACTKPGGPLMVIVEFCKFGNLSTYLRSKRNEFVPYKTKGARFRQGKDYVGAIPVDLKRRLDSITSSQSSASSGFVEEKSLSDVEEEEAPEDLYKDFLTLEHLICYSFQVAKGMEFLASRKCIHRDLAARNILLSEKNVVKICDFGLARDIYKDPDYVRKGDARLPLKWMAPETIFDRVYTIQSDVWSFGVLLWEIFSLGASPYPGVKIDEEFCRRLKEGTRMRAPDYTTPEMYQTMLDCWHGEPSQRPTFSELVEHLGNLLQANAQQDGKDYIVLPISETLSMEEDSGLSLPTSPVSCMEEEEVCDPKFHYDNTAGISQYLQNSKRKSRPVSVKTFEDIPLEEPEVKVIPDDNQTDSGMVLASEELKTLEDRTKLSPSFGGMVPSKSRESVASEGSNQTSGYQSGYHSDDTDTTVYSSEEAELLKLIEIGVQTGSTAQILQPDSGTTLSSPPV
Entry flag: MET if residual activity reaches 70%; NOT MET if it does not.

[
  {
    "compound-smiles": "CCCC(=O)Oc1ccc2[nH]c(C(=O)c3cc4ccccc4[nH]3)cc2c1",
    "target-system": "Vascular endothelial growth factor receptor 2 (Homo sapiens) (UniProt P35968)",
    "category": "MET"
  },
  {
    "compound-smiles": "O=C(O)/C=C/c1cc(Br)c(Br)c(Br)c1Br",
    "target-system": "Vascular endothelial growth factor receptor 2 (Homo sapiens) (UniProt P35968)",
    "category": "MET"
  },
  {
    "compound-smiles": "O=C1NC(=O)C(c2c[nH]c3ccccc23)=C1c1c[nH]c2ccccc12",
    "target-system": "Vascular endothelial growth factor receptor 2 (Homo sapiens) (UniProt P35968)",
    "category": "NOT MET"
  },
  {
    "compound-smiles": "COc1ccc2c(c1)c(C1=C(c3c[nH]c4ccccc34)C(=O)NC1=O)cn2CCCN(C)C",
    "target-system": "Vascular endothelial growth factor receptor 2 (Homo sapiens) (UniProt P35968)",
    "category": "NOT MET"
  },
  {
    "compound-smiles": "CC(C)(C)c1nc2c3ccc(F)cc3c3c(=O)[nH]ccc3c2[nH]1",
    "target-system": "Vascular endothelial growth factor receptor 2 (Homo sapiens) (UniProt P35968)",
    "category": "NOT MET"
  },
  {
    "compound-smiles": "O=C1Nc2ccc(Cl)cc2/C1=C/c1cc(Cl)c(O)c(Cl)c1",
    "target-system": "Vascular endothelial growth factor receptor 2 (Homo sapiens) (UniProt P35968)",
    "category": "NOT MET"
  },
  {
    "compound-smiles": "Cn1c2ccccc2c2c3c(c4c5ccccc5n(CCC#N)c4c21)CNC3=O",
    "target-system": "Vascular endothelial growth factor receptor 2 (Homo sapiens) (UniProt P35968)",
    "category": "NOT MET"
  },
  {
    "compound-smiles": "CCCCc1c(-c2ccc(O)cc2)[nH]c2nccnc12",
    "target-system": "Vascular endothelial growth factor receptor 2 (Homo sapiens) (UniProt P35968)",
    "category": "MET"
  },
  {
    "compound-smiles": "O=C1NC(=O)C(c2cn(CCCn3ccnc3)c3ccccc23)=C1Nc1ccccc1",
    "target-system": "Vascular endothelial growth factor receptor 2 (Homo sapiens) (UniProt P35968)",
    "category": "MET"
  },
  {
    "compound-smiles": "O=C1NC(=O)C(c2cn(CCCO)c3ncccc23)=C1c1cnccn1",
    "target-system": "Vascular endothelial growth factor receptor 2 (Homo sapiens) (UniProt P35968)",
    "category": "NOT MET"
  },
  {
    "compound-smiles": "CCOC(=O)c1c(C)[nH]c(/C=C2\\C(=O)Nc3ccccc32)c1C",
    "target-system": "Vascular endothelial growth factor receptor 2 (Homo sapiens) (UniProt P35968)",
    "category": "NOT MET"
  },
  {
    "compound-smiles": "CN(C)S(=O)(=O)c1ccc2c(c1)/C(=C/c1cc3c([nH]1)CCCC3)C(=O)N2",
    "target-system": "Vascular endothelial growth factor receptor 2 (Homo sapiens) (UniProt P35968)",
    "category": "NOT MET"
  },
  {
    "compound-smiles": "COc1cc2ncnc(Nc3cccc(Cl)c3)c2cc1OC",
    "target-system": "Vascular endothelial growth factor receptor 2 (Homo sapiens) (UniProt P35968)",
    "category": "NOT MET"
  },
  {
    "compound-smiles": "NCCNc1ncc(C(N)=O)c(Nc2cccc(C(F)(F)F)c2)n1",
    "target-system": "Vascular endothelial growth factor receptor 2 (Homo sapiens) (UniProt P35968)",
    "category": "MET"
  },
  {
    "compound-smiles": "O=c1cc(N2CCNCC2)oc2c(-c3ccccc3)cccc12",
    "target-system": "Vascular endothelial growth factor receptor 2 (Homo sapiens) (UniProt P35968)",
    "category": "MET"
  },
  {
    "compound-smiles": "Nc1ncnc2c1c(-c1ccc(Oc3ccccc3)cc1)cn2C1CCCC1",
    "target-system": "Vascular endothelial growth factor receptor 2 (Homo sapiens) (UniProt P35968)",
    "category": "NOT MET"
  },
  {
    "compound-smiles": "COc1cc2nccc(Oc3ccc(NC(=S)NC(=O)c4ccccc4C)cc3)c2cc1OC",
    "target-system": "Vascular endothelial growth factor receptor 2 (Homo sapiens) (UniProt P35968)",
    "category": "NOT MET"
  },
  {
    "compound-smiles": "O=C(c1cc2cc(O)ccc2[nH]1)c1cc2cc(O)ccc2[nH]1",
    "target-system": "Vascular endothelial growth factor receptor 2 (Homo sapiens) (UniProt P35968)",
    "category": "NOT MET"
  },
  {
    "compound-smiles": "Cn1sc(=O)n(Cc2ccccc2)c1=O",
    "target-system": "Vascular endothelial growth factor receptor 2 (Homo sapiens) (UniProt P35968)",
    "category": "MET"
  },
  {
    "compound-smiles": "O=C1Cc2c([nH]c3ccc(Br)cc23)-c2ccccc2N1",
    "target-system": "Vascular endothelial growth factor receptor 2 (Homo sapiens) (UniProt P35968)",
    "category": "MET"
  },
  {
    "compound-smiles": "Nc1ncnc2[nH]nc(Nc3ccc(F)cc3)c12",
    "target-system": "Vascular endothelial growth factor receptor 2 (Homo sapiens) (UniProt P35968)",
    "category": "MET"
  }
]

* * *

target: Fibroblast growth factor receptor 1 (Homo sapiens) (UniProt P11362); conditions: at 10 µM
Sequence (P11362 22-822 limits assumed): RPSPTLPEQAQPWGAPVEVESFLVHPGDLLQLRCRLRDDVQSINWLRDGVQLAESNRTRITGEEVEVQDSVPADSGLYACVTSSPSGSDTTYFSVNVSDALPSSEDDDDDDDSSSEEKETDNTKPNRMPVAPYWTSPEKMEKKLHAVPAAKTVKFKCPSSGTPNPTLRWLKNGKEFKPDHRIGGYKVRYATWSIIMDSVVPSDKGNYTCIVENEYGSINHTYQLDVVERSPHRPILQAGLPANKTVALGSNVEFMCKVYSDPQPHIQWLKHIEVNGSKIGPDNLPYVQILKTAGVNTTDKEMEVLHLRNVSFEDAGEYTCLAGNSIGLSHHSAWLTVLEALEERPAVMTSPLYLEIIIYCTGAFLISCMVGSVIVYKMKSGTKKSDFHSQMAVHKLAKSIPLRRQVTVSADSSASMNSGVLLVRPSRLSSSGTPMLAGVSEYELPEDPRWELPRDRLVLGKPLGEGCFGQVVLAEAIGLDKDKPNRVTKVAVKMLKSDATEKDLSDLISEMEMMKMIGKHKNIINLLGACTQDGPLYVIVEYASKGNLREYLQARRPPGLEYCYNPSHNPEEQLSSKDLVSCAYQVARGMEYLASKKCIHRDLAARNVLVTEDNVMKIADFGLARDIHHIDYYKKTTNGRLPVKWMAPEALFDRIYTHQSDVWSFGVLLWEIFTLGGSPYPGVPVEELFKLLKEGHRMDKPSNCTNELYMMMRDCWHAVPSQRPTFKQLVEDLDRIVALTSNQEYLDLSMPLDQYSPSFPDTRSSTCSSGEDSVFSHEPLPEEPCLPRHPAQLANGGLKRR

[
  {
    "compound-smiles": "c1ccc(-c2cnc(Nc3ccc(OCCN4CCCC4)cc3)s2)cc1",
    "measurement-unit": "%",
    "residual activity": 8
  },
  {
    "compound-smiles": "NCCNc1ncc(C(N)=O)c(Nc2cccc(C(F)(F)F)c2)n1",
    "measurement-unit": "%",
    "residual activity": 68
  },
  {
    "compound-smiles": "CN([C@@H](Cc1ccc(OS(=O)(=O)c2cccc3cnccc23)cc1)C(=O)N1CCN(c2ccccc2)CC1)S(=O)(=O)c1cccc2cnccc12",
    "measurement-unit": "%",
    "residual activity": 58
  }
]

* * *

biological target: Tyrosine-protein kinase BTK (Homo sapiens) (UniProt Q06187); conditions: at 10 µM
Sequence (Q06187 whole entry): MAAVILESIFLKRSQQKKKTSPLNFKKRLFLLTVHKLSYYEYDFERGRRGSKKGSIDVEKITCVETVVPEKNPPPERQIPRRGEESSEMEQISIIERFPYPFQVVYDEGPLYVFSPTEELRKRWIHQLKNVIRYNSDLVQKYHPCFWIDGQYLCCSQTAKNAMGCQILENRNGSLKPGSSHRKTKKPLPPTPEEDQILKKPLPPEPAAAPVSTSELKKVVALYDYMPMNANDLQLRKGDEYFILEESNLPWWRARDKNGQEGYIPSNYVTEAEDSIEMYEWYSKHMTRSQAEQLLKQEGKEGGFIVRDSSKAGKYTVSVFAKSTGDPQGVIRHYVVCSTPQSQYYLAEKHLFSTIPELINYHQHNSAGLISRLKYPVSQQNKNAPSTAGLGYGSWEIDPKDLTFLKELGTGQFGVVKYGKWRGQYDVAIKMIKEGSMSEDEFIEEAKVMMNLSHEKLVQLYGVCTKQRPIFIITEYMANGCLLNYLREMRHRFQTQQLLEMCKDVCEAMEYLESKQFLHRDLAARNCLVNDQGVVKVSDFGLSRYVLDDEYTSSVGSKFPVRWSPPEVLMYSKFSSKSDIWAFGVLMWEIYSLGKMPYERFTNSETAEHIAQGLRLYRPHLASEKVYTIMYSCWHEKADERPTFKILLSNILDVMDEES
Entries and their residual activity
observation-type: residual activity (%)

[
  {
    "molecule": "CSc1nc(-c2ccc(F)cc2)c(-c2ccnc(NC(C)c3ccccc3)c2)[nH]1 (centres undefined)",
    "observation-type": "residual activity",
    "experimental-value": 91
  },
  {
    "molecule": "O=C1NC(=O)c2c1c1c3ccccc3[nH]c1n1cncc21",
    "observation-type": "residual activity",
    "experimental-value": 34
  },
  {
    "molecule": "CC(C)[C@H](CO)Nc1nc(Nc2cc(N)cc(Cl)c2)c2ncn(C(C)C)c2n1",
    "observation-type": "residual activity",
    "experimental-value": 5
  },
  {
    "molecule": "COc1ccc(CNC(=O)Nc2ncc([N+](=O)[O-])s2)cc1",
    "observation-type": "residual activity",
    "experimental-value": 35
  }
]

* * *

molecular target: Tyrosine-protein kinase Blk (Homo sapiens) (UniProt P51451); conditions: at 10 µM
Sequence (P51451 2-505 limits assumed): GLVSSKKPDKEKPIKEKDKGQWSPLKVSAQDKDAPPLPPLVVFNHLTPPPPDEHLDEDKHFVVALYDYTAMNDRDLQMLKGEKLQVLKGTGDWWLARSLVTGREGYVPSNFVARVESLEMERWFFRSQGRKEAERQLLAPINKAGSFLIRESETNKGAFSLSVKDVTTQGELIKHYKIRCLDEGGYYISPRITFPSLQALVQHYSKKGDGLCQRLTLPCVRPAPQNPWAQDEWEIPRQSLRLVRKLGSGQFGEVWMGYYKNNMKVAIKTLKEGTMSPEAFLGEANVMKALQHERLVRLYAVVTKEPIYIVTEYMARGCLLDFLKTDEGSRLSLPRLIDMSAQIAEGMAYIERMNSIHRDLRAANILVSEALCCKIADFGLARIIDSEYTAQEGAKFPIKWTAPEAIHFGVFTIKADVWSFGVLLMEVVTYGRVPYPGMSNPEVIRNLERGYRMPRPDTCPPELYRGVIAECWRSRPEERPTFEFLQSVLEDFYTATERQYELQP
Assign labels as follows, please: yes for residual activity below 3%; no for residual activity equal to or exceeding 3%.

[
  {
    "compound-smiles": "O=c1c(-c2ccc(F)cc2)c(-c2ccncc2)[nH]n1-c1ccc(Cl)cc1",
    "category": "no"
  },
  {
    "compound-smiles": "O=S(=O)(NCCNC/C=C/c1ccc(Br)cc1)c1cccc2cnccc12",
    "category": "no"
  },
  {
    "compound-smiles": "O=C(O)/C=C/c1cc(Br)c(Br)c(Br)c1Br",
    "category": "no"
  },
  {
    "compound-smiles": "COc1cc2nccc(Oc3ccc(NC(=O)Nc4cc(C)on4)c(Cl)c3)c2cc1OC",
    "category": "yes"
  },
  {
    "compound-smiles": "O=C1NC(=O)c2c1c1c3ccccc3[nH]c1n1cncc21",
    "category": "no"
  }
]

* * *

target: Serine/threonine-protein kinase Nek6 (Homo sapiens) (UniProt Q9HC98); details: at 10 µM
Sequence (Q9HC98 whole entry): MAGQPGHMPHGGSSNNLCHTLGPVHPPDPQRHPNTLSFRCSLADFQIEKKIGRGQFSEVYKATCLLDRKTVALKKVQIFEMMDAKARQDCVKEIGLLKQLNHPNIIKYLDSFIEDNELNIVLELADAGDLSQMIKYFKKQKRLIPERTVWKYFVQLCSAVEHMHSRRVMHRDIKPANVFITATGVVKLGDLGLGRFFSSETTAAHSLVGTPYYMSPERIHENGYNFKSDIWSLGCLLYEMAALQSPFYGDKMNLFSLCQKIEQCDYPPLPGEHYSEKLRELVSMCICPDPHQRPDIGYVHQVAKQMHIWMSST
Description: Millipore: Percentage of residual kinase activity of NEK6 at 10uM relative to control. Control inhibitor: Phosphoric acid* at 0.3uM. Buffer: 8 mM MOPS pH 7.0, 0.2 mM EDTA
observation-type: residual activity (%)

[
  {
    "compound-smiles": "Nc1ncnc2c1c(-c1ccc(Oc3ccccc3)cc1)cn2C1CCCC1",
    "experimental-value": 99
  },
  {
    "compound-smiles": "CCCCc1c(-c2ccc(OC)cc2)[nH]c2nccnc12",
    "experimental-value": 100
  },
  {
    "compound-smiles": "Nc1nc(Nc2ccc(S(N)(=O)=O)cc2)nn1C(=O)c1c(F)cccc1F",
    "experimental-value": 115
  },
  {
    "compound-smiles": "O=C(CCCc1ccc(-c2ccccc2F)cc1)Nc1ccc(O)cc1",
    "experimental-value": 127
  },
  {
    "compound-smiles": "CC(C)(C)n1nc(Cc2cccc3ccccc23)c2c(N)ncnc21",
    "experimental-value": 116
  }
]
